- MEASURED TARGET: UniProtKB Q99705
REPORTED PROPERTY: pKi
Numbers only, as −log10 of the molar value.

Here are 3 compounds. What values of pKi were reported for them?
1. Cc1ccccc1Nc1nc(N)nc(CN(C)Cc2cccc(Cl)c2)n1
2. Cc1ccc(S(=O)(=O)CN(Cc2ccccc2)CS(=O)(=O)c2ccc(C)cc2)cc1
3. CCN(CC)Cc1cc(N=C2NS(=O)(=O)c3ccccc32)ccc1OC(=O)c1ccc(OC)cc1

RESULT:
[5.11, 5.12, 4.95]

----------
- MEASURED TARGET: Melanin-concentrating hormone receptor 1 (Homo sapiens)
- Sequence (Q99705 whole entry): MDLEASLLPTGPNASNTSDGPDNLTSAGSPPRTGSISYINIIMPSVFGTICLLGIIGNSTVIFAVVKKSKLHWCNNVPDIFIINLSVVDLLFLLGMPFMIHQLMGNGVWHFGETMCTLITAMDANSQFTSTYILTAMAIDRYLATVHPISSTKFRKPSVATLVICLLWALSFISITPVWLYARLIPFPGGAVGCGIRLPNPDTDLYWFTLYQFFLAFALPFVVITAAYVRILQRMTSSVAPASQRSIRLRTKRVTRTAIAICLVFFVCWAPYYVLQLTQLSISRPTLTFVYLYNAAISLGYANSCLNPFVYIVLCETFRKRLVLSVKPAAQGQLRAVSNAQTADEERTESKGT
- ASSAY OVERVIEW: Displacement of [125I]MCH from human MCHR1 expressed in CHO cell membranes at 5 ug/ml
Would you mind telling me the reported inhibition of each entry?
Hey, just the number and the unit after it is fine.

Here are 5 compounds. What values of inhibition were reported for them?
1. COc1ccc(-c2cn3c4ccccc4nc3n2CCCN2CCOCC2)cc1
2. COc1ccccc1Nc1nc(N)nc(CN(C)C2CCCCC2)n1
3. COc1cc(CN(CCCn2ccnc2)C(=O)c2cc3sccc3n2C)cc(OC)c1
4. CCOc1ccc(Nc2nc(N)nc(CN(C)C3CCCCC3)n2)cc1
5. COc1ccccc1CN(C(=O)c1cc2sccc2n1C)C1CC(C)(C)NC(C)(C)C1

RESULT:
1: 0%; 2: 0%; 3: 0%; 4: 3%; 5: 3%

QUERY: Param item = COc1ccc(Nc2nc(N)nc(CN(C)C3CCCCC3)n2)cc1 ; retrieve measured inhibition.
RESULT: 0%
